pKi: −log10 of the molar value.
Parameter pKi, tested on UniProtKB Q9Y5Y4, listed per item.
Sequence (Q9Y5Y4 whole entry): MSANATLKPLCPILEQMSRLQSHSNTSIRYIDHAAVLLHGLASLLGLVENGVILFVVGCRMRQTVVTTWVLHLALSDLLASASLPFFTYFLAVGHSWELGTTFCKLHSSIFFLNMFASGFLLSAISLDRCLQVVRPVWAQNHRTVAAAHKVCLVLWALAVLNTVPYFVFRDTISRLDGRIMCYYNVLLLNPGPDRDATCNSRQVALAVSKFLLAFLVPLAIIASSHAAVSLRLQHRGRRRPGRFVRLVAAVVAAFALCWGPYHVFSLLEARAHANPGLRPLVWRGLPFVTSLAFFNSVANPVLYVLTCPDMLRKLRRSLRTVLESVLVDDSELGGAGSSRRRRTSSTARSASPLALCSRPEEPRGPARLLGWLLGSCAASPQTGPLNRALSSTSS

The examples below pair each entry with its known result.
compound | assay metric | observed result
Cc1c(C2=NN(C3CCCCC3)S(=O)(=O)c3ccccc32)c2cc(F)ccc2n1CC(=O)O | pKi | > 7.00
O=C(O)Cn1cc(C2NS(=O)(=O)c3ccccc32)c2c(Cl)cccc21 (centres unmarked) | pKi | > 6.00
Cc1c(C2c3ccccc3S(=O)(=O)N2CCO)c2ccccc2n1CC(=O)O (centres unmarked) | pKi | > 5.00

Result for Cc1c(C2=NN(C(C)c3ccccc3)S(=O)(=O)c3ccccc32)c2cc(F)ccc2n1CC(=O)O (centres unmarked) , tested on UniProtKB Q9Y5Y4, pKi: > 7.00

Result for O=C(O)Cn1cc(C2NS(=O)(=O)c3ccccc32)c2cc(Br)ccc21 (centres unmarked) , tested on UniProtKB Q9Y5Y4, pKi: > 5.00

// data source = patent US7981912B2
